# Experiment Notes: Suspension stability at 25° C.
# Type: physicochemical
# Conditions Used: 25 °C, aqueous with cosolvent or surfactant or cyclodextrin, thermodynamic from solid, 10 mg/mL, 0.5(w/w) MC(400 cP) and 2%(w/w) Vitamin E TPGS in water, 24 h
Experimental Readout: solubility at 24 h (µg/mL)
Express the result in µg/mL but write the number alone.

Value of measured solubility at 24 h for the entry N#Cc1c(-c2cc(NC(=O)c3cc(F)cc(C(F)(F)F)c3)c3c(c2)C(=O)N[C@H]3c2cc(F)ccc2Cl)ccc2ncnn12 : 3810

====

# Experiment Notes: Approximate solubility at 25° C. (visual observation)
# Type: physicochemical
# Conditions Used: benzyl alcohol, organic solvent or mixture, thermodynamic from solid, polymorph screening batch
Experimental Readout: Solubility

The reported value for N#Cc1c(-c2cc(NC(=O)c3cc(F)cc(C(F)(F)F)c3)c3c(c2)C(=O)N[C@H]3c2cc(F)ccc2Cl)ccc2ncnn12 in terms of Solubility is 16 to 18 mg/mL

====

# Experiment Notes: Approximate solubility at 25° C. (visual observation)
# Type: physicochemical
# Conditions Used: anisole, organic solvent or mixture, thermodynamic from solid, polymorph screening batch
Experimental Readout: Solubility

Solubility in this record for N#Cc1c(-c2cc(NC(=O)c3cc(F)cc(C(F)(F)F)c3)c3c(c2)C(=O)N[C@H]3c2cc(F)ccc2Cl)ccc2ncnn12 [Compound I-1] : < 5000 µg/mL

====

# Experiment Notes: Approximate solubility at 25° C. (visual observation)
# Format: physicochemical
# Conditions Used: isopropanol, organic solvent or mixture, thermodynamic from solid, starting material for salt screening
# Description: Max. volume of each solvent added was 1 mL. Approximate solubility was determined by visual observation.
Experimental Readout: Solubility

For reference, reported Solubility for N#Cc1c(-c2cc(NC(=O)c3cc(F)cc(C(F)(F)F)c3)c3c(c2)C(=O)N[C@H]3c2cc(F)ccc2Cl)ccc2ncnn12 stands at < 5000 µg/mL

====

# Experiment Notes: Approximate solubility at 25° C. (visual observation)
# Assay type: physicochemical
# Conditions Used: ethyl acetate, organic solvent or mixture, thermodynamic from solid, polymorph screening batch
Experimental Readout: Solubility

For this compound ( N#Cc1c(-c2cc(NC(=O)c3cc(F)cc(C(F)(F)F)c3)c3c(c2)C(=O)N[C@H]3c2cc(F)ccc2Cl)ccc2ncnn12 ), measured Solubility is 6000 to 7000 µg/mL

====

# Experiment Notes: Approximate solubility at 25° C. (visual observation)
# Format: physicochemical
# Conditions Used: acetone, organic solvent or mixture, thermodynamic from solid, starting material for salt screening
Experimental Readout: Solubility

The compound identified as N#Cc1c(-c2cc(NC(=O)c3cc(F)cc(C(F)(F)F)c3)c3c(c2)C(=O)N[C@H]3c2cc(F)ccc2Cl)ccc2ncnn12 [Compound I-1] registered its Solubility at 12 to 17 mg/mL

====

# Experiment Notes: Approximate solubility at 25° C. (visual observation)
# Type: physicochemical
# Conditions Used: heptane, organic solvent or mixture, thermodynamic from solid, polymorph screening batch
# Experimental: Max. volume of each solvent added was 1 mL. Approximate solubility was determined by visual observation.
Experimental Readout: Solubility

// N#Cc1c(-c2cc(NC(=O)c3cc(F)cc(C(F)(F)F)c3)c3c(c2)C(=O)N[C@H]3c2cc(F)ccc2Cl)ccc2ncnn12 : Solubility value = < 5000 µg/mL
